target: human ether-à-go-go-related gene (hERG) potassium channel (human); test: primary screen, population patch clamp on CHO cells stably expressing hERG; higher = less effect of the substance;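 note: peak tail current of the secondary pulse compared with the same well before compound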
About 14,000 (4.5%) of roughly 310,000 compounds showed an effect of 50% or more. Effects have a minus sign here. This is one part of a sample in which strong results are shown more often than they occur.
# if value of hERG current change (%, negative = inhibition) at 10uM reaches -40%, tag 1 (yes); if it stays below, tag 0 (no)

                                   molecule  label_class
0  CCN(CC)CC(O)CN(c1ccccc1)S(=O)(=O)c1ccc2ccccc2c1.Cl (stereo not drawn)       0 (no)
1  Cn1cc(C(=O)N2CCN(c3cccc(Cl)c3)CC2)c(=O)c2cc(S(=O)(=O)N3CCOCC3)ccc21      1 (yes)
2  Cc1ccc(S(=O)(=O)N(CC(O)CN2C(=O)NC(C)(C)C2=O)c2ccccc2)cc1 (stereo not drawn)      1 (yes)
3  Cc1cccc(N(CC(O)CN(C)C)S(=O)(=O)c2ccccc2)c1.Cl (stereo not drawn)       0 (no)
4   COC(=O)CN(c1cccc(C)c1)S(=O)(=O)c1ccccc1      1 (yes)
5  Cc1ccc(S(=O)(=O)N(CC(O)CN(C)C)c2ccccc2)cc1.Cl (stereo not drawn)       0 (no)
6  O=S(=O)(c1ccccc1)N(CC(O)COc1ccccc1)c1ccccc1 (stereo not drawn)      1 (yes)
7  CCCCC(=O)Nc1ccc(C(=O)NNC(=O)CCCOc2ccc(Cl)cc2Cl)cc1      1 (yes)
8  Cc1cccc(N(CC(=O)N2CCCC2)S(=O)(=O)c2ccccc2)c1      1 (yes)

* * *

molecular target: human ether-à-go-go-related gene (hERG) potassium channel (human, UniProt Q12809); assay: primary screen, population patch clamp on CHO cells stably expressing hERG; higher = less effect of the substance;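 note: peak tail current of the secondary pulse compared with the same well before compound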
Sequence (Q12809 whole entry, looked up): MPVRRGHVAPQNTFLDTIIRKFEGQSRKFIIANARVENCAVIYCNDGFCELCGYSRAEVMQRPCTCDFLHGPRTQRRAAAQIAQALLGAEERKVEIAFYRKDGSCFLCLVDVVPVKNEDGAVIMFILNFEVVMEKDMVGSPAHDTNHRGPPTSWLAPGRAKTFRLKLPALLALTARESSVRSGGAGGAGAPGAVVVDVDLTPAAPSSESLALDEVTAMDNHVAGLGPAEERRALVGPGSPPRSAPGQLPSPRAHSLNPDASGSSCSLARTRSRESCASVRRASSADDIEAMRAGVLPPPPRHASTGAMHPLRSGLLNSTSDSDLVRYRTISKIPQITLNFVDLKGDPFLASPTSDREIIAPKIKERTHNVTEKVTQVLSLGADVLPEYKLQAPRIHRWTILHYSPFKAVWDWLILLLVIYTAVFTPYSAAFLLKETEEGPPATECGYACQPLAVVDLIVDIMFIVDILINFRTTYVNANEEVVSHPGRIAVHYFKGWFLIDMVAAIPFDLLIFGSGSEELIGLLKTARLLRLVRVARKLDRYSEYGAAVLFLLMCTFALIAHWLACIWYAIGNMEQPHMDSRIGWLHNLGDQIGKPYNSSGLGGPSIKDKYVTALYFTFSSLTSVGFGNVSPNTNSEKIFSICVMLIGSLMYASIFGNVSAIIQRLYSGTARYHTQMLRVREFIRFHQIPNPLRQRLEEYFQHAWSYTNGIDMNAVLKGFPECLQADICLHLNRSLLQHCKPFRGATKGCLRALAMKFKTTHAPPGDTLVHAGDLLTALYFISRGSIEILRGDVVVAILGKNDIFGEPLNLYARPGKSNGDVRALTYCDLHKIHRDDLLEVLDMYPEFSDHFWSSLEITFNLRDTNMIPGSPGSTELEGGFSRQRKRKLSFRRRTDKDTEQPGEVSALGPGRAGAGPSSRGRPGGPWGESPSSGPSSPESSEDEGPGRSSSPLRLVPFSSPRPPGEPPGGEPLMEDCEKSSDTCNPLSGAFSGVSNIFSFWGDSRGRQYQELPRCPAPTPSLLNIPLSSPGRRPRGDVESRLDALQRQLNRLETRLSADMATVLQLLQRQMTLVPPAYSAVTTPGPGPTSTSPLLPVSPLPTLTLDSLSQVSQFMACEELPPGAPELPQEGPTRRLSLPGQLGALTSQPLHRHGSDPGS
Hit rate of the full screen: of about 310,000 compounds, about 14,000 (4.5%) showed an effect of 50% or more. Effects have a minus sign here. This excerpt belongs to a sample that is enriched for strong results.
This listing pairs compounds with measured hERG current change (%, negative = inhibition) at 10uM.
MEASURE_NAME: hERG current change (%, negative = inhibition) at 10uM (%)

In [3]: df
Out[3]:
                                    compound  reported_measurement
 0     COc1ccc(-c2cc(-c3ccccc3)nc3ncnn23)cc1                 -56.4
 1  COc1ccc(C)cc1S(=O)(=O)N1CCN(S(=O)(=O)c2cc(C(=O)O)ccc2C)CC1                  3.86
 2                COc1ccc(-c2ccnc3ncnn23)cc1                 -9.61
 3  COc1ccc(-c2cc(-c3ccc(Br)cc3)nc3ncnn23)cc1OC                 -34.4
 4  CCCCN1C=C(C(=O)OC)C(c2ccccc2C(F)(F)F)C(C(=O)OC)=C1                 -1.84
 5  Cc1ccc(S(=O)(=O)Cc2ccc(C(=O)N3CCN(c4cccc(C)c4C)CC3)o2)cc1                 -7.95
 6       CCOC(=O)C(=O)N(Nc1ccccc1C)c1ccccc1C                 -14.3
 7  COc1c(C)cc(C(=O)C2CCCN(S(=O)(=O)c3c(C)noc3C)C2)cc1C (centres unmarked)                 -2.78
 8               CCCCOC(=O)c1ccc(NC(C)=O)cc1                 -11.2
 9          Cc1cc(C)c(NC(=O)Nc2ccccc2)c(C)n1                  23.4
10        Cc1c(NC(=O)CSCc2ccccc2)cccc1C(=O)O                    18
11  COCCN1C=C(C(=O)OC)C(c2ccccc2C(F)(F)F)C(C(=O)OC)=C1                 -8.36
12  CCCCNC(=O)C1Cc2cc(S(=O)(=O)N3CCCCC3)ccc2N1C(C)=O (centres unmarked)                  17.4
13  CC(=O)N1CCC(N2CCCC(C(=O)c3cccc(Cl)c3)C2)CC1 (centres unmarked)                  5.55
14  COC(=O)C1=CN(CCCN2CCCC2=O)C=C(C(=O)OC)C1c1ccccc1C(F)(F)F                 -57.1
15  CCOC(=O)N1CCC(N2CCCC(C(=O)c3cc(C)c(OC)c(C)c3)C2)CC1 (centres unmarked)                 -57.3
16  CC(Cc1cccs1)NC(=O)Nc1ccc(Cl)cc1 (centres unmarked)                  1.12
17  O=C(CN1C(=O)C(=O)N(C2CCCC2)C1=O)NCCc1ccc(Cl)cc1Cl                  10.4
18          Nc1cc(-c2cccc(Br)c2)nn1Cc1ccccc1                 -17.2
19  Cc1ccc(CCN2CC(C(=O)NCCCN3CCN(C)CC3)CC2=O)cc1 (centres unmarked)                 -8.81
20  Cc1sc2nc(CN3CCOCC3)nc(Oc3ccc(NC(=O)c4ccco4)cc3)c2c1C                 -38.9
21  CCCC(=O)N1CCCC(C(=O)c2cccc(OC(C)C)c2)C1 (centres unmarked)                  3.64
22  COc1ccc(NC(=O)C/C(C)=N/NC(=O)CCc2ccccc2)c(OC)c1                   4.6
23       Cc1sc(NC(=O)c2ccco2)c(CN2CCCCC2)c1C                 -49.9
24  COc1ccc(C(=O)C2CCCN(S(=O)(=O)N(C)C)C2)c(C)c1 (centres unmarked)                 0.683
25  CCOC(=O)C1=CN(CC2CCCO2)C=C(C(=O)OCC)C1c1ccccc1C(F)(F)F (centres unmarked)                 -64.7
26          CCOc1ccc(C(=O)Nc2nnc(C)s2)cc1OCC                 -4.04
27           COc1cccc2c(=O)c(C(=O)O)c[nH]c12                -0.514
28  CCOC(=O)CNC(=O)N1CCCC(C(=O)c2cc(C)c(OC)c(C)c2)C1 (centres unmarked)                  9.16
29  COc1ccc(N(CC(=O)Nc2cc(Cl)ccc2C)S(=O)(=O)c2c(C)noc2C)cc1                  16.7
30  CC(OCC(O)CN(C)CCOc1ccccc1)c1ccc(Cl)cc1 (centres unmarked)                 -43.5
31         C=CCNc1sc(C(=O)C(C)(C)C)c(N)c1C#N                  5.11
32     COc1ccc(-c2cc(-c3ccccc3)n3ncnc3n2)cc1                 -60.9
33  CC(=O)c1ccc(OCC(O)CN(C)CCOc2ccc(Br)cc2)cc1 (centres unmarked)                  23.4
34       COCCn1c(SCC(=O)N2CCCC2)nnc1-c1ccco1                  18.6
35  Cc1sc2nc(CN3CCOCC3)nc(N3CCC(C(N)=O)CC3)c2c1C                  5.73
36  CCOC(=O)c1c(C)[nH]c(C(=O)N2CCCC(C(=O)c3cccc(OC)c3)C2)c1C (centres unmarked)                 -8.55
37  O=C(N/N=C/c1ccc(-c2ccccc2[N+](=O)[O-])o1)c1cncc(Br)c1                 -6.97
38  COC(=O)C1=CN(CCCN2CCCC2=O)C=C(C(=O)OC)C1c1cccs1                 -25.1
39  CC(C)c1ccc(CN(C)CC(O)c2ccccc2)cc1.O=C(O)C(=O)O (centres unmarked)                 -18.9
40  CCOC(=O)N1CCC(N2CCCC(C(=O)c3cccc(OC(C)C)c3)C2)CC1 (centres unmarked)                 -76.8

* * *

This listing pairs molecules with measured hERG current change (%, negative = inhibition) at 10uM.
molecular target: human ether-à-go-go-related gene (hERG) potassium channel (human, UniProt Q12809); experiment: primary screen, population patch clamp on CHO cells stably expressing hERG; higher = less effect of the substance;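 note: peak tail current of the secondary pulse compared with the same well before compound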
The whole screen tested about 310,000 compounds, of which about 14,000 (4.5%) showed an effect of 50% or more. Effects have a minus sign here. This excerpt belongs to a sample that is enriched for strong results.
MEASURE_NAME: hERG current change (%, negative = inhibition) at 10uM (%)

                                   molecule  reported_measurement
0  O=C(NC1CC(=O)N(c2ccc(Cl)cc2)C1)N1CCN(C(=O)c2ccco2)CC1 (stereo not drawn)                 -91.6
1  CCc1nnc(NC(=O)c2ccc(S(=O)(=O)N(CC)Cc3ccccc3)cc2)o1                 -12.9
2    COc1ccc(-c2cc(C(=O)Nc3cc(C)on3)no2)cc1                  19.9
3  COCCN1C=C2C(=O)C(C)(OC(=O)CCC(=O)OC)C(=O)C(Br)=C2C=C1c1ccc(OC)cc1 (stereo not drawn)                  7.96
4       O=C(COC(=O)/C=C/c1ccccc1Cl)NC1CCCC1                  14.6
5  COc1cc(NC(=O)c2cc3ccccc3cc2OC)ccc1NC(=O)c1cccs1                  9.15
6  CN(CC(=O)Nc1ccccc1Br)C(=O)CCc1nc2ccccc2c(=O)[nH]1                 -15.8
7  COC(=O)CCC(=O)OC1(C)C(=O)C2=CN(Cc3ccccc3)C(c3ccc(OC)cc3)=CC2=C(Br)C1=O (stereo not drawn)                  2.01
8  O=C(NC1CC(=O)N(c2cccc(F)c2)C1)N1CCN(C(=O)c2ccco2)CC1 (stereo not drawn)                 -26.1
